system: KM12; experiment: NCI tumour cell line growth inhibition, 48 h
Activity calls are given as the source filed them. No stated cut-off is given here; in the data, active = GI50 up to about 1.1 µM and inactive = higher.
# maps each entry to its GI50

Molecule	GI50
COc1cc2c(cc1OC)C(=O)/C(=C/c1ccccc1)C2	60.8 µM (inactive)
O=c1c2cc(Br)cc(Br)c2nc(CCCl)n1CCO	> 100 µM (inactive)
CN(C)Cc1cc(/N=N/c2ccc(Cl)cc2)ccc1O	17.3 µM (inactive)
[N-]=[N+]=Nc1cc(=O)[nH]c2ccccc12	> 100 µM (inactive)
Cc1c2cccc-2c(N(C)C)cc2c1[nH]c1ccccc12	2.74 µM (inactive)
Cc1ccc(/C=N/Nc2nncc3ccccc23)s1	> 46.2 µM (inactive)
CCOC(=O)C1Cc2[nH]c3ccccc3c2C(C)C1C (configuration not stated)	17 µM (inactive)
O=C(O)CC(O)(c1ccccc1C(=O)O)c1cccc2ccccc12 (configuration not stated)	> 100 µM (inactive)
CCOc1ccccc1NC(=O)CC(C(=O)OC)C(=O)C(=O)OC (configuration not stated)	> 100 µM (inactive)
COc1cc(C(C#N)NNc2nc(C)cc(O)n2)cc(OC)c1OC (configuration not stated)	> 100 µM (inactive)
CC(C)N1CN(c2ccccc2)C2(CCN(CCCC(=O)c3ccc(F)cc3)CC2)C1=O	22 µM (inactive)
[N-]=[N+]=CC(=O)CCC(=O)N(c1ccccc1)c1ccccc1	> 10 µM (inactive)

###

system: UACC-62; assay: NCI tumour cell line growth inhibition, 48 h
Calls of active or inactive are those of the source. No stated cut-off is given here; in the data, active = GI50 up to about 1.1 µM and inactive = higher.
Parameter: GI50

Compound	Parameter	Experimental Value
CC(Br)CN1CCOCC1 (configuration not stated)	GI50	> 100 µM (inactive)
COC1C=C(Nc2cccc(Cl)c2)C(=O)C1 (configuration not stated)	GI50	60 µM (inactive)
CC1=C(C(=O)CC(=O)C(=O)Nc2ccccc2C(F)(F)F)Sc2ccccc2N1	GI50	38.5 µM (inactive)
CC(=O)OC1c2ccccc2CCCCCCC12OCCO2 (configuration not stated)	GI50	> 100 µM (inactive)
S=C1CSc2c(cnc3ccccc23)N1	GI50	> 100 µM (inactive)
[O-][S+]1c2ccccc2NC(c2ccc3ccccc3c2)CC1c1ccccc1 (configuration not stated)	GI50	37.1 µM (inactive)
N/C(=N/c1ccc(O)cc1)S(=O)(=O)O	GI50	> 100 µM (inactive)
N#Cc1c(N)c2c(c(-c3ccccc3)c1-c1ccccc1)C(=O)N(N)C2=O	GI50	> 100 µM (inactive)
O=C1CC(=O)n2cnc3cccc(c32)N1	GI50	> 100 µM (inactive)
CCOC(=O)c1nnsc1N/N=C\c1ccc([N+](=O)[O-])cc1	GI50	> 100 µM (inactive)
Cc1cccc(-n2c(C)nc3ccc(NC4OC(CO)C(O)C(O)C4O)cc3c2=O)c1 (configuration not stated)	GI50	> 100 µM (inactive)
c1nc2nc[nH]c(SSc3[nH]cnc4ncnc3-4)c-2n1	GI50	< 0.01 µM (active)

###

test system: HCC 2998; experiment: NCI tumour cell line growth inhibition, 48 h
Active and inactive are the calls of the source. No stated cut-off is given here; in the data, active = GI50 up to about 1.1 µM and inactive = higher.
Possible outcomes: 1 for active, -1 for inactive

Molecule	Class
C[C@]12CCC3[C@@H](CC[C@@H]4c5nonc5CC[C@]34C)C1CC[C@@H]2O (stereo partly drawn)	-1
O=C(O)c1ccccc1NS(=O)(=O)c1ccc(Cl)cc1	-1
CCN(CC)C(=S)SS(=O)(=O)c1ccccc1C(=O)O	-1
CCOC(=O)C1Sc2ccccc2N=C1C (stereo not drawn)	-1
O=c1c(O)c(-c2ccc(O)c(O)c2)oc2cc(O)cc(O)c12	-1
COc1ccc2c(c1)C1Oc3ccccc3CC1CO2 (stereo not drawn)	-1
O=C(/C=C/c1ccc(O)c(O)c1)O[C@H]1CCCC[C@@H]1OC(=O)/C=C/c1ccc(O)c(O)c1	-1
O=S(=O)(/C=C/C=C/S(=O)(=O)c1ccccc1)c1ccccc1	-1
Cc1cc(C)c2c(c1)C(=O)/C(=C/c1ccccc1C(=O)O)C2	-1
Cc1cc(NS(=O)(=O)c2ccc(Nc3c4ccccc4nc4c(C(=O)N5CCN(CCO)CC5)cccc34)cc2)no1	-1
COc1nc2c(nc(N)n2C2OC(CO)C(O)C(O)C2O)c(=O)[nH]1 (stereo not drawn)	-1
C/C(Cl)=N/OC(=O)Nc1ccc(S(N)(=O)=O)c(C)c1	-1
COc1cccc2ccc3c(c12)C(=O)OC31CCc2c(C)cccc21 (stereo not drawn)	-1
CC(=O)Nc1ccc(N2C(=O)/C(=C\c3cccc(Oc4ccccc4)c3)S(=O)(=O)C2c2ccccc2)cc1 (stereo not drawn)	-1
O=C(CC/C(CC(=O)c1ccc(Br)cc1)=N\O)Nc1ccc(Cl)c(Cl)c1	-1
Nc1ccccc1C(=O)NC(=O)Nc1ccc(Oc2ncc(Br)cn2)c(Cl)c1	1
C/C(=C\c1ccccc1)C(=O)NCc1ccc(C(=O)NCCc2ccccc2)cc1	-1
COc1cc(-c2cc(=O)c3cc(C)c(C)c(C(=O)O)c3o2)cc(OC)c1OC	-1
c1nnc(NCNc2nncs2)s1	-1
O=C(O)C(CS)Nc1c2ccccc2[n+]([O-])c2ccccc12 (stereo not drawn)	-1
CCOC(=O)COc1c(OC)cc(C2C3=C(COC3=O)Oc3cc4c(cc32)OCO4)cc1OC (stereo not drawn)	-1
COc1ccc(/C=C2/CCS(=O)(=O)c3ccc(C)cc3C2=O)cc1OC	-1
O=C(CNC(=O)OCc1ccccc1)NCCCCC(NC(=O)OCc1ccccc1)C(=O)O (stereo not drawn)	-1
O=S(=O)(SCc1ccccc1)C(c1ccccc1)c1ccccc1	-1
CO[C@]12C[C@@H](CNC(=O)c3cc(Br)c[nH]3)O[C@H]1NC(=O)N2	-1
CN(C)CC(=O)N1CCc2c([nH]c3ccccc23)C1c1cccnc1 (stereo not drawn)	-1
Cc1ccc(CS(=O)(=O)C/N=C2\Sc3ccccc3N\C2=C/C(=O)c2ccc(Cl)cc2)cc1	-1
COC(C)C(O)(C(=O)OCC1=CCN2CCC(O)C12)C(C)(C)O (stereo not drawn)	-1
COC(C)(C)CCc1[nH]c2ccccc2c1CC(=O)NCCc1cncn1C	-1
O=C1C=C(OCCCCl)C(=O)c2c(O)ccc(O)c21	-1
Nc1c(Br)cc2c(c1Br)Cc1cc(Br)ccc1-2	-1
O=C1CCC2CCc3cccc4oc1c2c34 (stereo not drawn)	-1
CCOC(=O)C1Cc2[nH]c3ccccc3c2C(C)C1C (stereo not drawn)	-1
O=C1/C(=C/Cc2ccco2)N=C(c2ccccc2)N1c1nc2ccc(Sc3ccccc3)cc2[nH]1	-1
CC1(C)Oc2ccc3ccc(=O)oc3c2C(O)C1O (stereo not drawn)	-1
CCOc1cc(NC(C)=O)ccc1C(=O)NNC(=O)c1ccccc1OC(C)=O	-1
COC(=O)CC(c1ccccc1)C(C#N)(OP1(=O)OC(c2ccccc2)C(C)N1C)c1ccccc1 (stereo not drawn)	-1
C1OCN2c3nonc3N3COCN4c5nonc5N1C2C43 (stereo not drawn)	-1
Oc1ccc2c3c1OC1c4[nH]ncc4C[C@H]4[C@@H](C2)N(CC2CC2)CC[C@]314 (stereo partly drawn)	-1
Cn1c(=O)c2ccc(-c3ccc(Br)cc3)nc2n(C)c1=O	-1
Nc1ccc2c(c1)CC1c3ccccc3C(C2)c2ccccc21	-1
O=C(O)CCSC(=O)Nc1cccc([N+](=O)[O-])c1	-1
O=C(c1ccccc1)c1nnc(C(=O)c2ccccc2)nn1	-1

###

system: HT-29; assay: NCI tumour cell line growth inhibition, 48 h
The source made the active and inactive calls. Rule as the data show it: active = GI50 up to about 1.1 µM and inactive = higher.
Possible outcomes: active, inactive

Compound	Class
O=C1/C(=C/Cc2ccco2)N=C(c2ccccc2)N1c1nc2ccc(Sc3ccccc3)cc2[nH]1	inactive
CCCCOP(=O)(OCCCC)/C(C#N)=C/c1ccco1	inactive
Clc1ccc(-c2nc3cc(Cl)ccc3[nH]2)cc1	inactive
CCC(C)C1=C(O)[N+]2([O-])Oc3ccc(-c4c(O)c(O)c(-c5ccc(O)cc5)c(OC(C)=O)c4OC(C)=O)cc3OC2(C(C)CC)C(=O)N1O (centres undefined)	inactive
S=C(Nc1ccc2c(c1)oc1ccccc12)c1cccs1	inactive
COc1c(C)c(OC)c2c(c1O)[C@@H]1[C@@H]3Cc4c(OC)c(C)c(OC)c(O)c4[C@H](CNC(=O)c4ccc5ccccc5n4)N3[C@@H](C#N)[C@H](C2)N1C	active
C/C(CC(=O)NCCc1ccccc1)=N\NC(=O)C[n+]1ccccc1	inactive
COC(=O)C1[C@H](C(=O)OC)C1(Br)CBr (some centres undefined)	inactive
Nc1nc(-c2ccco2)cc(-c2ccc(CO)o2)n1	inactive

###

test system: MOLT-4; assay: NCI tumour cell line growth inhibition, 48 h
Active and inactive are the calls of the source. Rule as the data show it: active = GI50 up to about 1.1 µM and inactive = higher.
# maps each entry to its GI50

Molecule	Target Desc	GI50
O=c1cc(-c2ccccc2)[nH]c2c(Cl)cccc12	MOLT-4	8.34 µM (inactive)
CCOC(=O)NC1C2CC(=O)C(O2)C1OCc1ccccc1 (stereo unspecified)	MOLT-4	> 100 µM (inactive)
O=c1c(O)c(-c2ccccc2)oc2c(CP(=O)(O)O)cccc12	MOLT-4	> 100 µM (inactive)
COc1cc(Nc2nc3cc(C(F)(F)F)ccc3nc2-c2ccccc2)cc(OC)c1OC	MOLT-4	> 100 µM (inactive)
Cc1c(O)nc(/C=C/C(=O)O)nc1C(=O)O	MOLT-4	> 100 µM (inactive)
C1=CC=C2NCCCCCC/N=C3\C=CC=CC=C3NCCc3cccc(c3)CC/N=C/2C=C1	MOLT-4	7.78 µM (inactive)
